Data origin, for the record: paper PMC4063337

TARGET_OF_ASSAY: 5-HT3A receptor (Homo sapiens)
Construct: gene HTR3A; homomeric (pentameric) receptor expressed recombinantly in HEK293 cells; cell membranes
Sequence (P46098 24-478): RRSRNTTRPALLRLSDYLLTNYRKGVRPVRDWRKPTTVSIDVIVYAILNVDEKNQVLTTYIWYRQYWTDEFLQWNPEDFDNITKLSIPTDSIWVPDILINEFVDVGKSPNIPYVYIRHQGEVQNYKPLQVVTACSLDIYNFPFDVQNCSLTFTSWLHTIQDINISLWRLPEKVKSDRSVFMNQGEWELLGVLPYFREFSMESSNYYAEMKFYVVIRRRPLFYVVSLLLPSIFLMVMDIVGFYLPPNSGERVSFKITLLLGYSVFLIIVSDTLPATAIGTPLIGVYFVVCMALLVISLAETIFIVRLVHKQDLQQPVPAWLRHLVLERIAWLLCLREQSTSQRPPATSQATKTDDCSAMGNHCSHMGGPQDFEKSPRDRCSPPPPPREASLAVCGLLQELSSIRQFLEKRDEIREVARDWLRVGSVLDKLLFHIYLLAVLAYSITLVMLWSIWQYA
EXPERIMENT_NOTES: [3H]granisetron competition binding, HEK293 membranes
CONDITIONS_USED: read-out: pKi (A) (converted)
Description: [3H]granisetron competition binding, HEK293 membranes on 5-HT3A receptor
Binarize Ki at 3 nM; below is MET, at or above is NOT MET.

COc1nc2ccccc2nc1N1CCN(C)CC1
MET

Dear reviewer, please state whether CN1CCN(c2cnc3cc(Cl)ccc3n2)CC1 has Ki strictly beneath 3 nM.
NOT MET

Dear reviewer, please state whether CN1CCCN(c2nc3ccccc3nc2Cl)CC1 has Ki strictly beneath 3 nM.
MET

Dear reviewer, please state whether CN1CCN(c2nc3ccccc3nc2C(F)(F)F)CC1 has Ki strictly beneath 3 nM.
NOT MET
